Task for the reader: assign each of the following molecules its reported max response, negative = inhibition.
Target: Serine/threonine-protein kinase PLK1 (Homo sapiens) (UniProt P53350)
Sequence (P53350 whole entry, looked up, the tested form may be a part): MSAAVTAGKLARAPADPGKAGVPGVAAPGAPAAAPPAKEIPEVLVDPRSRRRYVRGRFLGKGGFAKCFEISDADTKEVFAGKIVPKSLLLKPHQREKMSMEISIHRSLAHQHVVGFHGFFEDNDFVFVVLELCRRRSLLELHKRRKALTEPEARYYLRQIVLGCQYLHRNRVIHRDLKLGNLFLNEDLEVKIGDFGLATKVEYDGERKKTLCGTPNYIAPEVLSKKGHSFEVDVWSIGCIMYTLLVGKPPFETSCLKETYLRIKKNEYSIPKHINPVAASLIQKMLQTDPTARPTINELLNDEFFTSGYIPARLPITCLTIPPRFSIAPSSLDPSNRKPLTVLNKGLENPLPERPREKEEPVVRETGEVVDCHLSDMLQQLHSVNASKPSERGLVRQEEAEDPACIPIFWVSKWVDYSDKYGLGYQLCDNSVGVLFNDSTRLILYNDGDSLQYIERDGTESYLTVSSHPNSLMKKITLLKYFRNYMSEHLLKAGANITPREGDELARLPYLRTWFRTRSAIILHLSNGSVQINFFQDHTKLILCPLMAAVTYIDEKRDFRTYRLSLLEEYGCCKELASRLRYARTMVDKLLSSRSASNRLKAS
Assay: qHTS for Inhibitors of PLK1-PDB (polo-like kinase 1 - polo-box domain): Primary Screen; also: series mostly up to about 57 µM; % is scaled to controls: 0 for no effect and ±100 for the full control effect; nearly all actives have a fitted effect of over 65% in size
Conditions: Plk1 PBD binding of FITC phosphopeptide, fluorescence polarization
Among all 360,000 compounds or so, about 10,000 (2.8%) were called active. Roughly 4% stayed inconclusive and do not appear here. The entries come from a sample that favours actives as a whole.
Lab book: enter the figure in %, no units written.

# get_value(readout='max response, negative = inhibition', item= CN(C(=O)c1ccccn1)c1nnc(-c2ccccn2)s1 )
1.77

# get_value(readout='max response, negative = inhibition', item= Cc1oc(-c2ccccc2Cl)[n+]([O-])c1C )
-3.14

# get_value(readout='max response, negative = inhibition', item= CCc1nc2c(OCCC3CCCCC3)cccn2c1N(C)C(=O)c1ccco1 )
-5.85

# get_value(readout='max response, negative = inhibition', item= O=C(NCc1cccnc1)c1cc(C2CCCN(C(=O)C3CCCCC3)C2)on1 (stereo unspecified) )
0.902

# get_value(readout='max response, negative = inhibition', item= Cc1ccc(-n2c(SCC(=O)Nc3ccc4c(c3)OCO4)nnc2-c2ccccn2)cc1 )
-3.49

# get_value(readout='max response, negative = inhibition', item= Nc1nnc(SCC(=O)Nc2ccc3nc(SCC(=O)Nc4ccccc4)sc3c2)s1 )
2.76

# get_value(readout='max response, negative = inhibition', item= CCCCCNC(=O)C1C(=O)Nc2ccccc2C(=O)N1C(C)(C)C (stereo unspecified) )
-13.8

# get_value(readout='max response, negative = inhibition', item= O=C(C[C@H]1C[C@@H]2c3cc(NC(=O)C4CCC4)ccc3O[C@@H]2[C@H](CO)O1)NC1CCCCC1 )
-5.12

# get_value(readout='max response, negative = inhibition', item= CC(C)C[C@H]1CNC(=O)C(=O)N1C[C@H]1CCCN1C[C@H](Cc1ccc(O)cc1)N1C[C@H](CC(C)C)N(CC2CCCCCC2)C(=O)C1=O )
-0.278

# get_value(readout='max response, negative = inhibition', item= C=CCOc1ccccc1CNn1c(C)n[nH]c1=S )
-12.8

# get_value(readout='max response, negative = inhibition', item= Cc1c(C(=O)NCC2CC2)sc(=O)n1Cc1cccc(F)c1 )
3.08

# get_value(readout='max response, negative = inhibition', item= CCN(CC)C(=O)c1sc2nc(-c3ccccc3)ccc2c1N )
-8.25

# get_value(readout='max response, negative = inhibition', item= O=C(CSc1nnc(-c2ccccn2)n1-c1ccccc1)Nc1ccc2c(c1)OCO2 )
-6.44

# get_value(readout='max response, negative = inhibition', item= CC1(C(=O)NCc2ccc3c(c2)OCO3)CCN1CCc1ccccc1 (stereo unspecified) )
2.52

# get_value(readout='max response, negative = inhibition', item= COc1ccc(S(=O)(=O)N(C)C[C@H]2OCc3cnnn3CCCC(=O)N([C@H](C)CO)C[C@H]2C)cc1 )
-13.3

# get_value(readout='max response, negative = inhibition', item= CC(=O)N1CCN(Cc2cc(=O)oc3cc(C)ccc23)CC1 )
-2.03

# get_value(readout='max response, negative = inhibition', item= COc1ccc(C2C3=C(CCCC3=O)N(CC(=O)O)C3=C2C(=O)CCC3)cc1 )
-11.9

# get_value(readout='max response, negative = inhibition', item= CC(=O)c1cccc(-c2cnc3c(NC=O)cc(-c4ccc(N5CCN(C)CC5)cc4)cn23)c1 )
2.15

# get_value(readout='max response, negative = inhibition', item= CCOC(=O)C1(C)CCCN(C(=O)c2ccc(N(C)C)cc2)C1 (stereo unspecified) )
-5.89

# get_value(readout='max response, negative = inhibition', item= Cn1c(NCc2cccnc2)nc2cc(-c3ccc(F)cc3)sc2c1=O )
-3.07

# get_value(readout='max response, negative = inhibition', item= CCCCNC(=O)C1CCC(=O)N1CCc1ccccc1 (stereo unspecified) )
-10.6
